Hello, the source for this data is PubChem BioAssay (NCI), in case you need it.

System: UACC-257 melanoma
assay_text: NCI-60 one-dose screen, 48 h (100 = growth as untreated, 0 = no growth, -100 = all killed)
applied_conditions: 10 µM unless noted
The panel holds about 83,000 compounds, 20% with a hit somewhere; the sample as a whole holds those more often.
Quick list: growth per entry.
Kindly answer with a numeric value in %, unit omitted.

O=C1Nc2ccc(Cl)cc2/C1=C\c1c(-c2ccc(F)cc2)nc2ccccn12 = 75.6
COc1ccc(/C(C)=N/NC(=O)CSc2nc3ccccc3c(=O)n2CCc2ccc(S(N)(=O)=O)cc2)cc1 = 25.9
C#C[C@]1(O)CC[C@H]2[C@@H]3CC=C4c5sc(-c6cccc(Br)c6)nc5CC[C@]4(C)[C@H]3CC[C@@]21C = 80.7
C=C1C(=O)O[C@H]2[C@H]1CC/C(COC(=O)N[C@@H](Cc1c[nH]c3ccccc13)C(=O)OC)=C\CC[C@@]1(C)O[C@@H]21 = 11.5
CCCCCCCC/C=C/CCCCCCCC1=NC(C)(C)CN1c1ccccc1 = 90.2

**Q:** Dear colleague, I am looking for the recorded growth of the following compound: COc1cc(C2CC(c3ccccc3)=NN2C=O)ccc1Oc1nc2c(c(=O)n(C)c(=O)n2C)n1C (stereo unspecified)
**A:** -27.3

###

Test system: MCF7 breast
assay_text: NCI-60 one-dose screen, 48 h (100 = growth as untreated, 0 = no growth, -100 = all killed)
applied_conditions: 10 µM unless noted
This is part of a sample that, as a whole, favours compounds with a hit. Of some 83,000 tested, about 20% had one in any assay.
The entries below are paired with their reported growth.
State just the number; it will be interpreted in %.

Solved entries:
Nc1c(Br)cc2c(c1Br)Cc1cc(Cl)ccc1-2 = 80.6
COc1ccc(-c2nc3c(c(-c4ccc(Cl)cc4)nn3-c3ccccc3)c(-c3ccc(O)cc3)c2C#N)cc1 = 13.6
CCOC(=O)c1cnc(SCC)nc1SC#N = 87.7
CCN(CC)CC(=O)Nc1c(C)ccc(N)c1C = 92.4
CCNC(=O)c1ccc2c(c1)nc(-c1ccc(Cl)cc1)n2-c1cc(C(C)(C)C)[nH]n1 = 14.7

**Q:** # growth lookup, item `COc1ccc2nc(-c3ccc(-c4noc(-c5ccc(Cl)cc5)n4)cc3)[nH]c2c1`
**A:** 46.4

**Q:** // lookup growth for `O=C1OC(/C=C/c2ccccc2)=NC/1=C/c1ccccc1[N+](=O)[O-]`
**A:** 90.7

###

Test system: UACC-62 melanoma
assay_text: NCI-60 one-dose screen, 48 h (100 = growth as untreated, 0 = no growth, -100 = all killed)
applied_conditions: 10 µM unless noted
The panel holds about 83,000 compounds, 20% with a hit somewhere; the sample as a whole holds those more often.
observation_type: growth (%)
Report as a plain number; the unit % is understood.

These recorded examples may help you get a feel for the data.
COc1cnc2c(c1)C(=O)c1c-2n(CCCN2CCCC2)c(=O)c2cc(Cl)ccc12 = 21.1
CS(=O)(=O)c1ccc(C(=O)N/N=C/c2ccc3c(c2)OCO3)cc1 = 98
Clc1ccc(-c2cnc3nonc3n2)s1 = 54.9
Cc1ccccc1C1CC(=O)c2ccccc2C1C (stereo not given) = 87.4
COc1ccc2c(c1)C1=NN(C(=O)CO)[C@H](c3ccc(OC(F)(F)F)cc3)[C@@H]1CC2 = 76.3
O=C(N/N=C/c1ccc([N+](=O)[O-])cc1)c1ccccc1Nc1ccnc(C(F)(F)F)c1 = 57.6

**Q:** Dear colleague, I am looking for the recorded growth of the following compound: `C/C(=N\NC(=O)CSc1nc2ccccc2c(=O)n1CCc1ccc(S(N)(=O)=O)cc1)c1ccc(Br)cc1`
**A:** 79

**Q:** Reported growth for `O=C1SCN(Cc2ccccc2)CN1Cc1ccccc1` : what is it?
**A:** 89.6

**Q:** Which growth reading was recorded for the compound `CCN(CC)CCCCCCCCNc1c2ccc(Cl)cc2nc2ccc(OC)cc12` ?
**A:** -82.1

**Q:** Any idea what growth was measured for `CCOC(=O)c1cc(N)nc2ccccc12` ?
**A:** 108

**Q:** So what's the measured growth for this one? `O=C(Nc1cccc(C2=NCCN2)c1)c1ccc(N=Nc2ccc(C(=O)Nc3cccc(C4=NCCN4)c3)cc2)cc1`
**A:** 68.4

**Q:** Return reported growth; argument: `O=C(c1ccccc1)C(CCc1ccccn1)CCc1ccccn1`
**A:** 86.1

**Q:** Reported growth, compound CCCCCCCCCCCCC1CCC(=O)O1 (stereo not given) : ____
**A:** 98.5

**Q:** Any idea what its growth is? The compound is CC[C@]1(O)C[C@H]2CN(CCc3c([nH]c4ccccc34)C(C(=O)OC)(c3cc4c(cc3OC)N(C)[C@H]3[C@@](O)(C(=O)OC)[C@H](OC(C)=O)[C@]5(CC)[C@@H]6C[C@@H]6CN6CC[C@]43[C@@H]65)C2)C1 (stereo not given in full)
**A:** 14.5

**Q:** Data request, read-out growth, for `CCN(CC)c1ccc(/C=C2/NC(=O)NC2=O)cc1`
**A:** 11.7

**Q:** growth for `COc1ccc2nc3ccccc3c(NCc3ccc(C)cc3)c2c1` ?
**A:** 55.7

**Q:** Requested read-out: growth. Entry: `COc1cc(/C=C\c2cc(/C=C\c3ccc(O)c(OC)c3)n(C(=O)Nc3ccc(C(F)(F)F)cc3)n2)ccc1O`
**A:** 31.1

**Q:** I have this compound here, `O=c1c2cc(Cl)ccc2oc2ccc(OCCCCCN3CCCCCC3)cc12` , and I need its recorded growth.
**A:** 85.4

**Q:** I'd like to know its growth. The compound in question is `CC(C)(C)c1ccc(OC(=O)Nc2ccccc2)cc1`
**A:** 110

**Q:** Could you tell me which growth is on file for `C#Cc1cccc(Nc2nc3cc([N+](=O)[O-])ccc3nc2Nc2ccc(O)cc2)c1` ?
**A:** -15.9

###

Test system: OVCAR-3 ovarian
assay_text: NCI-60 one-dose screen, 48 h
applied_conditions: 10 µM unless noted
Compounds without any hit were thinned out: in the full panel of roughly 83,000, 20% have a hit. Active and inactive are the calls of the source. Rule for the calls: active = growth percent below 10; inactive = the rest.
Outcomes you can answer with include only these: class 1 (active), class 0 (inactive)

Known results for molecules:
CC(C)CCSc1nc(-c2ccc(F)cc2)c(C#N)c(N2CCCCC2)n1 = class 0
COc1ccc2nc(C)cc(Sc3nc4ccccc4s3)c2c1 = class 0
O=C1NN(C(=O)c2ccccc2)C(c2ccc(Cl)c(Cl)c2)=C/C1=C\c1ccccc1[N+](=O)[O-] = class 0
CCOC(=O)Nc1ccc2nc(Sc3ccc(Cl)cc3)sc2c1 = class 1
CCCCCCCOc1cccc(/C=C2\N=C3SCCCN3C2=O)c1 = class 0

**Q:** Which result was noted for this molecule in the test: `O=C(NO)c1ccc(CNc2cccc3nc(C4CC4)n(-c4ccccc4)c(=O)c23)cc1`
**A:** class 1

**Q:** Could you please tell me the result logged for `COc1ccc(-c2nc3c(c(-c4ccc(Cl)cc4)nn3-c3ccccc3)c(-c3ccc(O)cc3)c2C#N)cc1` in this assay?
**A:** class 0

**Q:** State the result this test recorded for `Clc1nnc2c3ccccc3ccn12` .
**A:** class 0

**Q:** Look up the recorded call for `COc1cc2ncnc(Nc3ccc(S(=O)(=O)Nc4cc(C)on4)cc3)c2cc1OCCCN1CCN(c2ccc([N+](=O)[O-])cc2)CC1` in this test.
**A:** class 0

**Q:** Which result was noted for this molecule in the test: `COc1cnc2c(c1)C(=O)c1c-2n(CCCN2CCCC2)c(=O)c2cc(Cl)ccc12`
**A:** class 0

###

Tested on: SK-MEL-2 melanoma
assay_text: NCI-60 one-dose screen, 48 h
applied_conditions: 10 µM unless noted
Compounds without any hit were thinned out: in the full panel of roughly 83,000, 20% have a hit. Calls of active or inactive are those of the source. How the source made its calls: active means growth percent below 10; inactive means the rest.
Log the outcome using a class from yes for active, no for inactive

CCCCCCCC/C=C/CCCCCCCC1=NC(C)(C)CN1c1ccccc1 = no
Cc1ccccc1C1CC(=O)c2ccccc2C1C (stereo unspecified) = no
O=C(CCl)Nc1cc(O)c2c(c1)C(=O)c1cccc(O)c1C2=O = yes
Cc1cccc(/C=N/n2c(-c3ccc(Cl)cc3)nc3c(Br)cc(Br)cc3c2=O)c1 = no
COc1ccc(C(=O)C(CN(C)C)c2ccc(OC)cc2)cc1 (stereo unspecified) = no

**Q:** Which outcome was entered for the molecule `Clc1cccc(CNc2c3ccccc3nc3ccccc23)c1` in this test?
**A:** no

**Q:** Which result was noted for this molecule in the test: `CC(=O)Nc1c(Br)cc2c(c1Br)Cc1cc(Br)ccc1-2`
**A:** no

**Q:** Hi, sorry to bother you, what did the test record for CC(C)CC(=O)C(CCc1ccccn1)C(C)C (stereo unspecified) ?
**A:** no

**Q:** Check the results log: what was the call for COc1ccc(C2=NNC(c3ccc(Oc4nc5c(c(=O)n(C)c(=O)n5C)n4C)c(OC)c3)C2)cc1 (stereo unspecified) ?
**A:** no

**Q:** Outcome? `COc1cc(OC)c2sc(-c3ccc(-n4cncc4-c4ccc(OC)c(N)c4)cc3)nc2c1`
**A:** no
